Taken from ChEMBL document CHEMBL2150966.

Assay: Plasma concentration in C57BL6 mouse at 100 mg/kg, po after 4 hr
Assay type: ADME, organism-based
Set-up: dose 100 mg/kg, route oral
OBSERVED PROPERTY: concentration at 4 h (µM)

Example entries begin here.
INSERT INTO results (structure_smiles_string, observed_property, measured_number) VALUES
  ('CNC(=O)c1nc(-c2ccc(Cl)c(S(=O)(=O)Nc3cccc(F)c3)c2)cnc1N', 'concentration at 4 h', 1),
  ('CNC(=O)c1nc(-c2ccc(Cl)c(S(=O)(=O)Nc3ccccc3Cl)c2)cnc1N', 'concentration at 4 h', 9.6),
  ('CNC(=O)c1nc(-c2ccc(Cl)c(S(=O)(=O)Nc3ccc(F)cc3Cl)c2)cnc1N', 'concentration at 4 h', 19.2),
  ('CNC(=O)c1nc(-c2ccc(Cl)c(S(=O)(=O)Nc3cccc(Cl)c3Cl)c2)cnc1N', 'concentration at 4 h', 22.1),
  ('CNC(=O)c1nc(-c2ccc(Cl)c(S(=O)(=O)Nc3cccc(F)c3C)c2)cnc1N', 'concentration at 4 h', 6.2);

P: CNC(=O)c1nc(-c2ccc(Cl)c(S(=O)(=O)Nc3cccc(F)c3F)c2)cnc1N
Q: COc1ccc(-c2cccc(S(=O)(=O)N3CCN(c4nccnc4-c4ccc(OC)cc4)CC3)c2)cc1
R: CNC(=O)c1nc(-c2cccc(S(=O)(=O)Nc3cccc(Cl)c3)c2)cnc1N
S: CC(C)c1ccc(-c2ncccc2N2CCN(S(=O)(=O)c3cccc(-c4cnc(N)nc4)c3)CC2)cc1
stdin: With regard to concentration at 4 h, arrange the entries in ascending order, please. Please write the labels in the order that was asked for.
stdout: Q, R, S, P
